Could you please report measured Inhibition zone for the items listed next?
- Test system: Poliovirus 1
- Experiment: Antiviral activity was evaluated in vitro against human poliovirus as inhibition zone in agar-diffusion plaque-inhibition test
- Format: functional
Give bare numbers, in mm.

Past entries and their recorded results:
Name the recorded Inhibition zone of `Nc1cccc(N/C(S)=N/c2ccccc2)c1` , assay system Poliovirus 1.
28.3

Write down the reported Inhibition zone (system: Poliovirus 1) of `O=C(O)c1ccc(N/C(S)=N/c2ccccc2)cc1O`
36.1

Each molecule below has a recorded value; state its Inhibition zone.
1. Oc1cccc(/N=C(\S)Nc2cccc(O)c2)c1
2. Nc1ccc(/N=C(\S)Nc2ccc(N)cc2)cc1

1: 26.7; 2: 0

====

- Experiment: Antiviral activity was evaluated in vitro against human poliovirus as antiviral affect in agar-diffusion plaque-inhibition test (- => inhibition, diameter < = 5 mm)
- Type: functional
Measured parameter: Antiviral effect

Solved entries:
Answer with reported Antiviral effect of `O=C(O)c1ccc(N/C(S)=N/c2ccccc2)cc1`
Not toxic

Consider the molecule `O=C(O)c1cccc(N/C(S)=N/c2ccccc2)c1` and give its recorded Antiviral effect.
Not toxic

Query Antiviral effect for `CC(=O)Nc1cccc(O)c1`
Not toxic

For the molecule `O=C(Nc1ccccc1)Nc1ccccc1O` , give its reported Antiviral effect.
Not toxic

Continue with the molecule presented below.
In one line, give reported Antiviral effect of the entry `Oc1ccccc1/N=C(/S)Nc1ccccc1` .
Not toxic

====

Hi there, I'd appreciate the recorded Inhibition zone for every entry that follows.
- Test system: Poliovirus 1
- Experiment: Antiviral activity was evaluated in vitro against human poliovirus as inhibition zone in agar-diffusion plaque-inhibition test
- Assay type: functional
One number for each entry, in mm.

Using known records, supply Inhibition zone for `Nc1cccc(NC(=O)Nc2ccccc2)c1`
0

// fetch Inhibition zone given entry `CC(=O)Nc1cccc(O)c1`
0

Look up Inhibition zone for the entries below, preserving their order.
1. Oc1cccc(N/C(S)=N/c2ccccc2)c1
2. Oc1ccc(/N=C(\S)Nc2ccc(O)cc2)cc1
3. O=C(Nc1ccccc1)Nc1cccc(O)c1

[33, 0, 13.3]

====

- Experiment: Antiviral activity was evaluated in vitro against human ECHO virus as toxicity zone in agar-diffusion plaque-inhibition test
- Assay type: functional
Note to self: Toxicity zone under 30 mm means yes, ties and anything higher get no.

# count of solved cases: 3
In the record for `Nc1cccc(N/C(S)=N/c2ccccc2)c1` , is Toxicity zone less than 30 mm?
yes

Is it true that Toxicity zone reported for `Oc1cccc(/N=C(\S)Nc2cccc(O)c2)c1` is less than 30 mm?
yes

Is it true that Toxicity zone reported for `Nc1ccccc1/N=C(/S)Nc1ccccc1` is less than 30 mm?
no

New cases:
Consider `O=C(Nc1ccccc1)Nc1cccc(O)c1` . Does its Toxicity zone lie strictly below 30 mm?
yes

Say whether its Toxicity zone is strictly beneath 30 mm. Entry: `Nc1ccccc1/N=C(\S)Nc1ccccc1N`
no

====

- System: Poliovirus 1
- Experiment: Antiviral activity was evaluated in vitro against human poliovirus as inhibition zone in agar-diffusion plaque-inhibition test
- Type: functional
Lab note: cut-off is 30 mm. Strictly less in Inhibition zone is yes (1). Exactly 30 mm or more is no (0).

Lab log: compare recorded Inhibition zone with 30 mm; is it strictly lower for `Nc1ccc(NC(=O)Nc2ccccc2)cc1` ?
yes (1)

Inhibition zone strictly < 30 mm for this molecule? `Nc1ccccc1/N=C(/S)Nc1ccccc1`
yes (1)

Would you kindly look at the next entry?
# strict comparison: is reported Inhibition zone < 30 mm? input = `Nc1ccccc1/N=C(\S)Nc1ccccc1N`
no (0)
